molecular target: CLK1 (Homo sapiens)
Sequence (P49759 whole entry): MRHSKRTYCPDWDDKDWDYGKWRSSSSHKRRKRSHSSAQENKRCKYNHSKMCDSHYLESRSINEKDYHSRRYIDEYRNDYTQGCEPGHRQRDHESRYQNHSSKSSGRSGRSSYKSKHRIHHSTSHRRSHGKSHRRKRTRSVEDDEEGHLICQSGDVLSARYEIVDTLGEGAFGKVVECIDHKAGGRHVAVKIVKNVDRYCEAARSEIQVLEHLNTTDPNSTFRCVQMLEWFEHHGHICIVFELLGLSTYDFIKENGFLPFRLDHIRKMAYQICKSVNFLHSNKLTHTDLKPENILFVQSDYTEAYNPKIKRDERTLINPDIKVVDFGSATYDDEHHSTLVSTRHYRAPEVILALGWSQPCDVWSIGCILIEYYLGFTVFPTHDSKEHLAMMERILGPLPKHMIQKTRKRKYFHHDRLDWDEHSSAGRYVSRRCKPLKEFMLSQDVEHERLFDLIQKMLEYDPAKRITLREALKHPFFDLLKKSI
pIC50: −log10 of the molar value.
Attribute measured: pIC50

Compound structure: O=C(Nc1cc(C2CCCC2)n[nH]1)c1ccc2c(c1)[nH]c(=O)n2C1CCCC1
Attribute measured: pIC50
Observed measurement: 6.35

====

target: CLK3 (Homo sapiens)
Sequence (P49761 whole entry): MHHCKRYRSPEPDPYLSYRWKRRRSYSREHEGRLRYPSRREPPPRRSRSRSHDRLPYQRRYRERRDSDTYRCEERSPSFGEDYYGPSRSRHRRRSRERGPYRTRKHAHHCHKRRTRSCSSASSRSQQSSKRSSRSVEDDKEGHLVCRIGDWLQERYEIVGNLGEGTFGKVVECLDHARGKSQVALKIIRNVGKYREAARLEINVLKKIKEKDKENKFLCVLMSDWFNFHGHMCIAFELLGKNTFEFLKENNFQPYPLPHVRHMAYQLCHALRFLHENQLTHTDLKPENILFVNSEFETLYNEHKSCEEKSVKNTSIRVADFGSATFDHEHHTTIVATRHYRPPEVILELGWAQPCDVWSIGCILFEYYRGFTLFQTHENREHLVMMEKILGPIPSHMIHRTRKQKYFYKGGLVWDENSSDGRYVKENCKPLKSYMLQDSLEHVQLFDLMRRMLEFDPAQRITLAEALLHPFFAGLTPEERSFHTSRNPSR
pIC50: −log10 of the molar value.

Compound structure: O=C(Nc1cc(C2CCCC2)n[nH]1)c1ccc2c(c1)[nH]c(=O)n2C1CCCC1
pIC50: 5.17

====

target: CLK2 (Homo sapiens)
Sequence (P49760 whole entry): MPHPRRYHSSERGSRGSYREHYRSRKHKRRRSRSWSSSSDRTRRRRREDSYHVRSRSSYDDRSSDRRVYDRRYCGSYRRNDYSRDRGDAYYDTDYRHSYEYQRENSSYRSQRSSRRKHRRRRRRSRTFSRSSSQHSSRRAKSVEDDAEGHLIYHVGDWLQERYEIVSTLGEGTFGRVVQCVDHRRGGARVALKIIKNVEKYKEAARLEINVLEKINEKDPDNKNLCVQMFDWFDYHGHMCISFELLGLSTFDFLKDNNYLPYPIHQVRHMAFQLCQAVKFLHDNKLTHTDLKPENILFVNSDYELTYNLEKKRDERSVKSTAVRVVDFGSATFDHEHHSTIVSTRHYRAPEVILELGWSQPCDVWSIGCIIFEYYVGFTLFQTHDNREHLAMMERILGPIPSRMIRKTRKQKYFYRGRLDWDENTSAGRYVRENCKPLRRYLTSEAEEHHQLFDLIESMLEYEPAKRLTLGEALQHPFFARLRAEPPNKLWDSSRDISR

Compound structure: O=C(Nc1cc(C2CCCC2)n[nH]1)c1ccc2c(c1)[nH]c(=O)n2C1CCCC1
IC50 [nM]: 605

src = paper PMC11952508
